# MEASURED_TARGET: T1, human antithrombin (human, UniProt P01008 33-464)
# T1 construct: Serpin; the description says that AT consists of 432 amino acids; also called purified human antithrombin; AT
# T1 sequence (P01008 33-464 limits assumed): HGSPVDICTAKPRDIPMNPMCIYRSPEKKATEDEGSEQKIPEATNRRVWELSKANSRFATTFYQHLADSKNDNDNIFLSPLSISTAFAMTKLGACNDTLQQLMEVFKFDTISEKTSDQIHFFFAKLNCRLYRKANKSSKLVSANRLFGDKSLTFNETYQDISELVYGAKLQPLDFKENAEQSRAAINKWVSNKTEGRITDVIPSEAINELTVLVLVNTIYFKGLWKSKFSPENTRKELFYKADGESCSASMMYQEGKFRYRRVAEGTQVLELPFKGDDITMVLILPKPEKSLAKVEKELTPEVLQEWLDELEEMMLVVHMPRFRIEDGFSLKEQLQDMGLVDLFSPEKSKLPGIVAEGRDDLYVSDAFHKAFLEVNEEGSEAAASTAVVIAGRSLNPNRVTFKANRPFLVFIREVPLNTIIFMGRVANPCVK
# ASSAY_INFO: BLI (Octet-QK), sdAb coupled to sensor, antithrombin 12.5-50 ug/ml; apparent KD
# Source text: The interaction between sdAbs KB-AT-001, KB-AT-002, KB-AT-003 and KB-AT-006 versus human antithrombin was further analyzed via biolayer-interferometry analysis using Octet-QK equipment in order to determine apparent dissociation constants (KD,app). […] Obtained data were subsequently analyzed using Octet-QK data analysis software (Origin vs 4) to estimate KD,app.
QUANTITY_MEASURED: Kd (nM)
# unit: nM | format: bare number

Reference set (2 entries):
# BINDER, Kd / nM
records = [
    ("KB-AT-001 (VHH, Monovalent anti-antithrombin single-domain antibody; also called sdAb KB-AT-001) VHH: QVQLQQSGGDLAQRGGSLRLSCAASGRTFRNYVMGWFRQAPGKDPEFIAGINRSGAITYYGDSVKGRFTISRDNAKNTVSLQMNSLEPEDTAVYYCAAGETTWSIRRDDYDYWGQGTQVTVSS", 14),
    ("KB-AT-006 (VHH, Monovalent anti-antithrombin single-domain antibody; also called sdAb KB-AT-006) VHH: QVQLQQSGGGLVQAGGSLRLSCAASGRTFSNNGMGWFRQAPGKEREFVAAISWSSGSTYYADSVKGRYTISRDNAKNTVYLQMNSLKPEDTAVYYCAARTRYNSGYFTRNYDYWGQGTQVTVSS", 22),
]

Prompt line: Using the record for KB-AT-003 (VHH, Monovalent anti-antithrombin single-domain antibody; also called sdAb KB-AT-003) VHH: QVQLVQSGGGLVQPGGSLRLSCAASALTFSSRAWAWYRQAPGKQRELVASITGGGTTNYADSVKGRFTISRDNAKNTVYLQMNSLKPEDTAVHYCNGYRYTYAWGQGTQVTVSS , report its Kd.
Response line: 0.4

Prompt line: Using the record for KB-AT-002 (VHH, Monovalent anti-antithrombin single-domain antibody; also called sdAb KB-AT-002) VHH: QVQLVQSGGGLVQAGGSLRLSCAASGRTFNNNGMGWFRQAPGKEREFVAAISWSGGSTYYADSVKGRYIMSRDNAKNTVYLQMNSLKPEDTAVYYCAARTRYNSGLFSRNYDYWGQGTQVTVSS , report its Kd.
Response line: 4
